For each of the binders below, state its Kd.
# test system: T1, GFP-9S library array, motif 4 ND N98M;D124T (synthetic construct, N98M;D124T)
# T1 chain: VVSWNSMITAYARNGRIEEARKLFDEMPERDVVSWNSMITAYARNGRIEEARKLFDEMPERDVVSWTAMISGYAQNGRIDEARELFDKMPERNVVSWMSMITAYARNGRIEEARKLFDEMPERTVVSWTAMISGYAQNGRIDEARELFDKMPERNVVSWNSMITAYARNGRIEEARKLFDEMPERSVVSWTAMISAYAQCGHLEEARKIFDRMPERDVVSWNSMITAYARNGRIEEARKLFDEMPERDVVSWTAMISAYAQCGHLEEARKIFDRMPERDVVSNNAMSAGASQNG
# procedure summary: high-throughput RNA pulldown from lysate on Ni-NTA beads; HRP: 50 mM Tris pH 8, 150 mM NaCl, 1 mM beta-mercaptoethanol, 50 ug/ml BSA, 3 ug/ml yeast RNA, 0.5% heparin; ITC and FP: Tris pH 8, 200 mM KCl, 5% glycerol; MST: 50 mM Tris pH 8, 200 mM NaCl, 1 mM DTT, BSA, heparin, 0.05% Tween 20
# experimental context: tags: N-terminal His-eGFP; label: 5' Cy5
Please give a number only; it is taken to be in nM.

Q: Kd for AUUACACGUGA (ssRNA) [Cy5-rpoA] ?
Result: 124

Q: For AUUAGACGUGA (ssRNA) [Cy5-rpoA-G] , what is its reported Kd?
Result: 115
